These entries and their values trace back to patent US10239830B2.

As shown below, each of these compounds has a reported NPC1 Eff. value.
# Test system: NPC1 promoter
# assay.info: qHTS of NPC1 Promoter-Luciferase Reporter Gene Assay (firefly, Huh7)
# Assay type: cell-based, human
# measurement.parameters: 24 hours
A number alone suffices; assume %.

Here is how some compounds turned out for NPC1 Eff..
[
  {
    "compound.structure.string": "CC(=O)c1c(C)c(C(=O)Nc2cccc(S(=O)(=O)N(C)C)c2)n(C)c1C",
    "tested.on": "NPC1 promoter",
    "readout.number": 83
  },
  {
    "compound.structure.string": "CCc1c(C)[nH]c(C(=O)Nc2cccc(S(=O)(=O)N(C)C)c2)c1C",
    "tested.on": "NPC1 promoter",
    "readout.number": 47
  },
  {
    "compound.structure.string": "Cc1cccc(C)c1C(=O)Nc1cccc(S(=O)(=O)N(C)C)c1",
    "tested.on": "NPC1 promoter",
    "readout.number": 127
  },
  {
    "compound.structure.string": "COc1ccc(NC(=O)c2[nH]c(C)c(C(C)=O)c2C)cc1S(=O)(=O)Nc1ccc(C#N)cc1",
    "tested.on": "NPC1 promoter",
    "readout.number": 100
  },
  {
    "compound.structure.string": "CCc1ccc(NC(=O)c2[nH]c(C)c(C(C)=O)c2C)cc1S(=O)(=O)Nc1ccc(C#N)cc1",
    "tested.on": "NPC1 promoter",
    "readout.number": 259
  }
]

Query: Fill in: NPC1 Eff. of Cc1ccc(C(=O)Nc2cccc(S(=O)(=O)N(C)C)c2)c(C)c1 is ___
Result: 79
